# Tested on: LXRa homodimer (NR concentration 270 nM)
# measurement-notes: PBM binding z-score (relative to random genomic background probes); higher = stronger binding; sequences stand for … in GC…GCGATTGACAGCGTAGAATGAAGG
# cutoff -0.3 applies to PBM binding z-score; >= gives 1 (yes), < gives 0 (no)

{"chain": "TCATACAGGTGAAGGTAACTCAGGTACGCAGTCG", "answer-label": "1 (yes)"}
{"chain": "GGAACGAGGGCAAATTTGATAGCATCTGTCGACG", "answer-label": "0 (no)"}
{"chain": "ACTAGCAGGCCAAGTTTGGGTCACTGAAACAAAG", "answer-label": "0 (no)"}
{"chain": "AGTCAAAGTTCAGGACGAGGTAACCTAAAGCACG", "answer-label": "1 (yes)"}
{"chain": "ATCTCTAGGTAAAGATAGATCAGTGAATGCAAAT", "answer-label": "1 (yes)"}
{"chain": "CCTACCGGGCCAAGGTCATTGATCAGTCAAAGCA", "answer-label": "1 (yes)"}
{"chain": "GCGACTGGGGCAAAGCAAGTTACCATAAGGTTGG", "answer-label": "0 (no)"}
{"chain": "CCGACTGGGGCCAGGTTACCATAACGCACAGCCA", "answer-label": "1 (yes)"}
{"chain": "TAGCCTAGGTCATTGGGCCAGTATTGTACGCATC", "answer-label": "1 (yes)"}
{"chain": "CGAACTAGGTCAGAACAGGACAGTGGAGGATGAT", "answer-label": "1 (yes)"}
{"chain": "CCAGACAGGTGGAAGGTAACTCAGTCTGGTACGC", "answer-label": "0 (no)"}
{"chain": "CCTAGCAGGCCAGGATCACTCAAGCATTTCGCTT", "answer-label": "0 (no)"}

###

# Tested on: LXRa:RXRa (NR concentration 270 nM, RXRa partner concentration 90 nM)
# measurement-notes: PBM binding z-score (relative to random genomic background probes); higher = stronger binding; sequences stand for … in GC…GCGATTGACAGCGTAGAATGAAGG

{"chain": "GGAACGAGGGCATTTGAGTTGATAGCATGGCGAT", "PBM binding z-score": 1.6}
{"chain": "CGAACTAGGTCAGAACAAGACAGTGAAGGATGAT", "PBM binding z-score": 0.591}
{"chain": "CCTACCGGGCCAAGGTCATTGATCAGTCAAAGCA", "PBM binding z-score": 3.01}
{"chain": "ATCTCTAGGTGAGACTCAGTTCAGTGAAGAACGC", "PBM binding z-score": 0.206}
{"chain": "CAAACTAGGTCAAGAGGTCAAAGTCCGCTTCCCG", "PBM binding z-score": 6.37}
{"chain": "TCTCGGAGGGCACGAAGGTCAGAGCTTTCCAGAG", "PBM binding z-score": 2.22}
{"chain": "GCTTACGTGTCAAAGGTTATAGCATGAATAGAAT", "PBM binding z-score": 3.02}
{"chain": "CGTACTGGGCCATTCAGAGGTCATTGATCATATG", "PBM binding z-score": 4.58}
{"chain": "TGTCAAAGTTCAAAGGTAACGTGAGTATCCACAC", "PBM binding z-score": 6.79}
{"chain": "ATCGAAAGGTCGAGGTGAGTAGAGAGAAAGGGAA", "PBM binding z-score": 3.47}
{"chain": "ACTAGCAGGCCAAGGGCCACTCAAGATTAGTCCG", "PBM binding z-score": -0.559}
{"chain": "AGAACGAGGGCACCCTGAGTTGATAGCAGAGTAG", "PBM binding z-score": 0.52}
{"chain": "TCGAGTAGGTTAGGGGCATGCAGAATGGCGTCGA", "PBM binding z-score": 0.125}
{"chain": "TCTTGTAGATCAAAGGCTAAGAAAGCCGAAGCCT", "PBM binding z-score": 0.0908}
{"chain": "ATCACTAGGTAACCAAGTTCAGTGAATGCCGAAC", "PBM binding z-score": 0.618}
{"chain": "GCGACTGGGGCAAAGCAGGTTACGATAAGGTTGG", "PBM binding z-score": -0.117}
{"chain": "CAAACTAGGTCACCGGAAGGTCAAACTCCGCATG", "PBM binding z-score": 6.34}
{"chain": "ATTGAAAGGTCGTGAGGTGAGTATACAGAAAGGC", "PBM binding z-score": 4.67}
{"chain": "TATACAGGGTCAAACGCCAGAGTACGAATGTCGA", "PBM binding z-score": 6.35}
{"chain": "GCTAGTTGGTCAGCAAAAGGTCACACACCGGTCG", "PBM binding z-score": 4.15}
{"chain": "CCAACTAGGTCAAGGACAGTGAATCTCCGCACGC", "PBM binding z-score": 2.12}
{"chain": "CCTTACGGGTCACTCCAGGTTATAGCCTCGGAGT", "PBM binding z-score": 7.57}
{"chain": "GCTAATAGTTGAAAGGGCAACCGAATGATTCTCG", "PBM binding z-score": 1.16}
{"chain": "ACATGTAGGTTAGCTGGGGTCATTCAGACTAGGC", "PBM binding z-score": 5.55}
{"chain": "AGAATGAGGTTACTAAGATCAGGGAATTGCGGTC", "PBM binding z-score": 1.24}
{"chain": "CCTAGTTGGTCTAGGTCACACACGCTATAGGTAC", "PBM binding z-score": 1.66}
